Measured Delipoylation product (HPLC yield of delipoylated product), listed per entry for reference.
TARGET_OF_ASSAY: Sirt2 (Homo sapiens, UniProt Q8IXJ6)
Construct: made in house
Sequence (Q8IXJ6 1-389): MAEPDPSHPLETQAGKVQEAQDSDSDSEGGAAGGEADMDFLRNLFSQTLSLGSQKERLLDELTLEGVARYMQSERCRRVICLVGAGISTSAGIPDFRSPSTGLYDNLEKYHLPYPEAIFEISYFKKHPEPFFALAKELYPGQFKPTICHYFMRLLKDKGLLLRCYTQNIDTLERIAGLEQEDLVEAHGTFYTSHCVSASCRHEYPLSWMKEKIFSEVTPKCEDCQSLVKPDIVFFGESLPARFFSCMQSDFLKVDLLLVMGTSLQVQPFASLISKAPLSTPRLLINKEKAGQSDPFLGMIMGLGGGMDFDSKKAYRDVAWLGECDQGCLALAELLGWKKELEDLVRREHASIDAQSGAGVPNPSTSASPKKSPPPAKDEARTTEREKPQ
TEST_NAME: HPLC delipoylation assay of lipoylated peptides with Sirt2
Assay type: biochemical
CONDITION_INFO: Sirt2 + NAD+, 37° C., monitored at 280 nm after 40 min
Where a SMILES comes first, the peptide text is derived from it. The star is where a group is joined. ξ: configuration not given here. Lipoyl(6ξ) = O=C(CCCCC1CCSS1)*
Give just the number in %; leave the unit off.

C[C@H](NC(=O)[C@@H](NC(=O)[C@H](CCC(N)=O)NC(=O)[C@@H](N)CCCCN)[C@@H](C)O)C(=O)N[C@@H](CCCNC(=N)N)C(=O)N[C@@H](CCCCNC(=O)CCCCC1CCSS1)C(=O)N[C@@H](CO)C(=O)N[C@H](C(=O)NCC(=O)NCC(=O)N[C@@H](Cc1c[nH]c2ccccc12)C(=O)N[C@@H](Cc1c[nH]c2ccccc12)C(=O)O)[C@@H](C)O (stereo partly shown) [KAlip-1, KQTARK(lip)STGGWW] (H-KQTARK(Lipoyl(6ξ))STGGWW-OH): 59
CC(C)[C@H](N)C(=O)N[C@@H](CCC(N)=O)C(=O)N[C@@H](CO)C(=O)N[C@@H](CC(=O)O)C(=O)N[C@@H](CCCCNC(=O)CCCCC1CCSS1)C(=O)N[C@@H](C)C(=O)N[C@@H](CO)C(=O)N[C@H](C(=O)N[C@H](C(=O)N[C@@H](Cc1c[nH]c2ccccc12)C(=O)N[C@@H](Cc1c[nH]c2ccccc12)C(=O)O)[C@@H](C)O)C(C)C (stereo partly shown) [KAlip-8, VQSD K(lip)ASVTWW] (H-VQSDK(Lipoyl(6ξ))ASVTWW-OH): 100
CC[C@H](C)[C@H](NC(=O)[C@@H](NC(=O)[C@H](C)NC(=O)[C@H](CCCCNC(=O)CCCCC1CCSS1)NC(=O)[C@H](CC(=O)O)NC(=O)[C@@H](NC(=O)[C@H](CCC(=O)O)NC(=O)[C@@H](NC(=O)[C@@H](N)CCC(=O)O)[C@@H](C)CC)[C@@H](C)O)[C@@H](C)O)C(=O)NCC(=O)N[C@@H](Cc1c[nH]c2ccccc12)C(=O)N[C@@H](Cc1c[nH]c2ccccc12)C(=O)O (stereo partly shown) [KAlip-5, EIETDK(lip)ATIGWW] (H-EIETDK(Lipoyl(6ξ))ATIGWW-OH): 100

Query: Item under review: CSCC[C@H](NC(=O)[C@H](C)NC(=O)[C@H](CCC(=O)O)NC(=O)[C@@H](N)C(C)C)C(=O)N[C@@H](CCCCNC(=O)CCCCC1CCSS1)C(=O)N[C@@H](CC(C)C)C(=O)N[C@@H](CCSC)C(=O)N[C@@H](CC(N)=O)C(=O)N[C@@H](CCC(=O)O)C(=O)N[C@@H](Cc1c[nH]c2ccccc12)C(=O)N[C@@H](Cc1c[nH]c2ccccc12)C(=O)O (stereo partly shown) [KAlip-11, VEAMK(lip)LMNE WW] (H-VEAMK(Lipoyl(6ξ))LMNEWW-OH) . Reported Delipoylation product (HPLC yield of delipoylated product)?
Reply: 94

Data credit: patent US12146183B2
